# Test system: murine splenocytes
# ASSAY TEXT: cells
# Set-up: species or system mouse splenocytes
# SETTINGS: Mus musculus, Splenocyte, 24 h, read-out: EC50 (μM), IL-6
METRIC: EC50 (µM)
Kindly provide the numeric value in µM only, without the unit symbol.

Prompt: Could you tell me which EC50 is on file for Nc1ncnc2c1ncn2[C@@H]1O[C@@H]2COP(O)(=S)O[C@@H]3[C@H](O)[C@@H](COP(O)(=S)O[C@H]2[C@H]1O)O[C@H]3n1cnc2c(N)ncnc21 (stereo partly shown) ?
Response: 1.7
